B1: HDV Ribozyme (parent)
chain: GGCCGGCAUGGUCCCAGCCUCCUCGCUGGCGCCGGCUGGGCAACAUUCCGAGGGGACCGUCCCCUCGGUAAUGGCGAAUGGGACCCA

Variants of: B1
PROTOCOL: self-cleavage, relative activity (ratio to wild type); higher = more cleavage; co-transcriptional
Class (by self-cleavage) -- b0: < 0.2; b1: ≥ 0.2 and < 0.6; b2: ≥ 0.6

Tag the class for G6U C66A b1

Request: A45C C64G b2

Request: G53C C64G b1

Request: U72C A78U b1

Request: A51C G68C b2

Request: A43U G55U b2

Request: A51C C63G b1

Request: C24G G35C b0

Request: G40U U69G b2

Request: C48U U79A b2

Request: G25A G59A b0

Request: G50U G76U b2

Request: G2A G34C b0

Request: C22A G38U b1

Request: U20G U46C b0

Request: C58G C86A b2

Request: G29U C41U b0

Request: U27A G54C b2

Request: A45U G55U b2

Request: C32U A77C b0

Request: C48G U60A b2

Request: C21A G40C b0

Request: G2U C24A b0

Request: G17U C61U b1

Request: G34U C44A b0

Request: U23C U27C b2

Request: C49G A87G b2
